assay: Selectivity index for antiviral vs cytotoxic activity in Vero cells (CC50/IC50); conditions: monkey, Vero cells
selectivity ratio listing for selected compounds.
Enter the number alone.

Recorded selectivity ratio, per entry:
INSERT INTO results (compound, property_label, assay_result) VALUES
  ('CCCCCC(=O)O[C@]1(C(C)=O)CC[C@H]2[C@@H]3CCC4=CC(=O)CC[C@]4(C)[C@H]3CC[C@@]21C [HYDROXYPROGESTERONE CAPROATE]', 'selectivity ratio', 7.93),
  ('COc1cc2c3cc1Oc1c(OC)c(OC)cc4c1[C@@H](Cc1ccc(O)c(c1)Oc1ccc(cc1)C[C@@H]3N(C)CC2)N(C)CC4', 'selectivity ratio', 6.35),
  ('CC(C)(C)c1cc(C(C)(C)C)c(NC(=O)c2c[nH]c3ccccc3c2=O)cc1O', 'selectivity ratio', 3.76),
  ('C[C@@H]1O[C@@H](O[C@@H]2C=C3CC[C@@H]4[C@H](CC[C@]5(C)[C@@H](c6ccc(=O)oc6)CC[C@]45O)[C@@]3(C)CC2)[C@H](O)[C@H](O)[C@H]1O', 'selectivity ratio', 24.5),
  ('OC(c1cc(C(F)(F)F)nc2c(C(F)(F)F)cccc12)C1CCCCN1 (stereo unspecified)', 'selectivity ratio', 3.22);

Data request: # query: selectivity ratio of entry CC(C)=CCc1c2c(c3occ(-c4ccc(O)cc4)c(=O)c3c1O)C=CC(C)(C)O2
Data returned: 2.95

* * *

test: Selectivity index for antiviral vs cytotoxic activity in Vero cells (CC50/IC50); settings: monkey, Vero cells
PROPERTY LABEL: selectivity ratio
Enter the number alone.

Recorded selectivity ratio, per entry:
INSERT INTO results (molecule, assay_result) VALUES
  ('CCN(CC)CCOc1ccc2c(c1)C(=O)c1cc(OCCN(CC)CC)ccc1-2 [TILORONE]', 4.81),
  ('Oc1c(Cl)cc(Cl)c(Cl)c1Cc1c(O)c(Cl)cc(Cl)c1Cl [HEXACHLOROPHENE]', 21.6),
  ('C=CC(=O)Nc1cc(Nc2nccc(-c3cn(C)c4ccccc34)n2)c(OC)cc1N(C)CCN(C)C [OSIMERTINIB]', 4.05);

// next entry
Data request: # query: selectivity ratio of entry CC(C)=CCCC1(C)C=Cc2c(O)c3c(c(CC=C(C)C)c2O1)OC12C(=CC4CC1C(C)(C)OC2(C/C=C(/C)C(=O)O)C4O)C3=O (centres undefined) [DIHYDROGAMBOGIC ACID]
Data returned: 0.74
